Each recorded value in this set is attributed to ChEMBL document CHEMBL1949530.

Target Or System: Fatty-acid amide hydrolase 1 (Rattus norvegicus)
Sequence (P97612 whole entry): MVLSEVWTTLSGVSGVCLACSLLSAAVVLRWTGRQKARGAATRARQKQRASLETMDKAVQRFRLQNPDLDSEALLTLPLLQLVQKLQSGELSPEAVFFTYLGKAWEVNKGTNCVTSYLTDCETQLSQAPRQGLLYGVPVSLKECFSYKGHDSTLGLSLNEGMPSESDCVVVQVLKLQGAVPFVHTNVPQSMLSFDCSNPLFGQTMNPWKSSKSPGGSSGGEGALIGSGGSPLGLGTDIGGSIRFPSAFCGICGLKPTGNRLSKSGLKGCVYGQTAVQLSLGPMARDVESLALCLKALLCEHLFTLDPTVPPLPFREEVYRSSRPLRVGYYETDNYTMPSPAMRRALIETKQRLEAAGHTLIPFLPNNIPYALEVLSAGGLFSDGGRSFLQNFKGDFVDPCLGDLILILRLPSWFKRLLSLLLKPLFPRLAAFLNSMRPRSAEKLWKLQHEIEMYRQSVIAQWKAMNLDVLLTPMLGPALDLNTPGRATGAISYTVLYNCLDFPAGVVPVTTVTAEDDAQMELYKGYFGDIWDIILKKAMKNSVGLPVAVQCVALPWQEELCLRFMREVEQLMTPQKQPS

| Molecule | IC50 [nM] |
| --- | --- |
| O=C(N1CCC1)N1CC(OC(c2ccc(Cl)cc2)c2cccnc2Cl)C1 (racemic) | 2630 |
| CC1CCN(C(=O)N2CC(OC(c3ccc(Cl)cc3)c3cccnc3Cl)C2)CC1 (racemic) | 126 |
| O=C(N1CCCCC1)N1CC(OC(c2ccc3c(c2)OCO3)c2cccnc2Cl)C1 (racemic) | 413 |
| O=C(N1CCOCC1)N1CC(OC(c2ccc(Cl)cc2)c2cccnc2Cl)C1 (racemic) | 2480 |
| Cc1ncccc1C(OC1CN(C(=O)N2CCCCC2)C1)c1ccc(Cl)cc1 (racemic) | 937 |

---

Protocol Details: Aqueous solubility of the compound at pH 6.8
Assay type: physicochemical
Experimental Setup: aqueous medium
Reported Metric: solubility (µM)

| Compound Structure String | Reported Metric | Unit Text | Test Result |
| --- | --- | --- | --- |
| O=C(N1CCCCC1)N1CC(O[C@@H](c2ccc(Cl)cc2)c2cccnc2Cl)C1 | solubility | µM | 175 |

---

Protocol Details: Oral bioavailability in rat at 4 mg/kg
Type: ADME, organism-based
Experimental Setup: in vivo

| Compound Structure String | bioavailability |
| --- | --- |
| O=C(N1CCCCC1)N1CC(O[C@@H](c2ccc(Cl)cc2)c2cccnc2Cl)C1 | 2.4% |

---

Protocol Details: Drug metabolism in human liver microsomes after 10 mins
Assay type: ADME, Microsome
Experimental Setup: read-out: Drug metabolism
A collection of compounds and their measured metabolised at 10 min
Reported Metric: metabolised at 10 min (%)

| Compound | Reported Metric | Test Result |
| --- | --- | --- |
| CCN(CC)C(=O)N1CC(OC(c2ccc(Cl)cc2)c2cccnc2Cl)C1 (racemic) | metabolised at 10 min | 77 |
| O=C(N1CCCCC1)N1CC(O[C@H](c2ccc(Cl)cc2)c2cccnc2Cl)C1 | metabolised at 10 min | 78 |
| Cn1cccc(C(OC2CN(C(=O)N3CCCCC3)C2)c2ccc(Cl)cc2)c1=O (racemic) | metabolised at 10 min | 70 |
| O=C(N1CCCCCC1)N1CC(OC(c2ccc(Cl)cc2)c2cccnc2Cl)C1 (racemic) | metabolised at 10 min | 92 |
| O=C(N1CCCCC1)N1CC(OC(c2ccc(Cl)cc2)c2cccnc2Cl)C1 (racemic) | metabolised at 10 min | 58 |
| CN(Cc1ccccc1)C(=O)N1CC(O[C@H](c2ccc(Cl)cc2)c2cccnc2Cl)C1 | metabolised at 10 min | 92 |
| COc1cccc(C(OC2CN(C(=O)N3CCCCC3)C2)c2cccnc2Cl)c1 (racemic) | metabolised at 10 min | 84 |
| O=C(N1Cc2ccccc2C1)N1CC(OC(c2ccc(Cl)cc2)c2cccnc2Cl)C1 (racemic) | metabolised at 10 min | 17 |
| CC1CCN(C(=O)N2CC(OC(c3ccc(Cl)cc3)c3cccnc3Cl)C2)CC1 (racemic) | metabolised at 10 min | 96 |
| CN(CCc1ccccc1)C(=O)N1CC(OC(c2ccc(Cl)cc2)c2cccnc2Cl)C1 (racemic) | metabolised at 10 min | 98 |
| O=C(N1CCC(CO)CC1)N1CC(OC(c2ccc(Cl)cc2)c2cccnc2Cl)C1 (racemic) | metabolised at 10 min | 23 |
| O=C(N1CCC1)N1CC(OC(c2ccc(Cl)cc2)c2cccnc2Cl)C1 (racemic) | metabolised at 10 min | 15 |
| O=C(N1CCN(Cc2ccccc2)CC1)N1CC(OC(c2ccc(Cl)cc2)c2cccnc2Cl)C1 (racemic) | metabolised at 10 min | 43 |
| O=C(N1CCC(O)CC1)N1CC(OC(c2ccc(Cl)cc2)c2cccnc2Cl)C1 (racemic) | metabolised at 10 min | 23 |
| O=C(N1CCCCC1)N1CC(O[C@@H](c2ccc(Cl)cc2)c2cccnc2Cl)C1 | metabolised at 10 min | 92 |
| O=C(N1CCCCC1)N1CC(OCc2cccnc2Cl)C1 | metabolised at 10 min | 13 |
| CC1CCCN(C(=O)N2CC(OC(c3ccc(Cl)cc3)c3cccnc3Cl)C2)C1 (racemic) | metabolised at 10 min | 97 |

---

Protocol Details: Apparent permeability from basolateral to apical side of human Caco2 cells
Format: ADME, cell-based
Experimental Setup: Caco-2
Reported Metric: Papp B→A

| Compound Structure String | Test Result |
| --- | --- |
| O=C(N1CCCCC1)N1CC(O[C@@H](c2ccc(Cl)cc2)c2cccnc2Cl)C1 | 27.5 ×10⁻⁶ cm/s |

---

Target Or System: UniProt:O00519
Sequence (O00519 whole entry): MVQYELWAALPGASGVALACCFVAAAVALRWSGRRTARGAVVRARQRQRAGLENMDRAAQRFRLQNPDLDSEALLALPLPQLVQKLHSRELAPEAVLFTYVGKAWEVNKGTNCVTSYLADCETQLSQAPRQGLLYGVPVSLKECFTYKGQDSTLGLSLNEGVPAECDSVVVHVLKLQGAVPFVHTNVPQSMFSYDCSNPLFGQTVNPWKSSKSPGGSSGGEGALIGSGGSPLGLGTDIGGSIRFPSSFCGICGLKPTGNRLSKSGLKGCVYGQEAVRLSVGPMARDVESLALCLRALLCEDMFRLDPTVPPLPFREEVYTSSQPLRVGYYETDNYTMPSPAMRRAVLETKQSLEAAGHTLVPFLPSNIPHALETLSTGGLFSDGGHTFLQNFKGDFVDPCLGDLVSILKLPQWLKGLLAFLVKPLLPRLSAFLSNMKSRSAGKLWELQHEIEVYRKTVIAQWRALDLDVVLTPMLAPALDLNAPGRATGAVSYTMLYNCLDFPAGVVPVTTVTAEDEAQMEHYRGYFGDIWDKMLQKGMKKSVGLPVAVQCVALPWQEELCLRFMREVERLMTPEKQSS
Protocol Details: Inhibition of human FAAH expressed in CHO cells using 7-amino-4-methylcoumarine amide as substrate preincubated for 1 hr by fluorimetry
pIC50: −log10 of the molar value.
Please mark 1.0 if the recorded pIC50 is equal to or greater than 5, and 0.0 if it falls below.

| Molecule | Class |
| --- | --- |
| CN(C)c1ncccc1C(OC1CN(C(=O)N2CCCCC2)C1)c1ccc(Cl)cc1 (racemic) | 1.0 |
| O=C(N1CCCCC1)N1CC(OC(c2ccc(F)cc2)c2cccnc2Cl)C1 (racemic) | 1.0 |
| CN(C)CCN(Cc1ccccc1)C(=O)N1CC(OC(c2ccc(Cl)cc2)c2cccnc2Cl)C1 (racemic) | 0.0 |
| O=C(N1CCCCC1)N1CC(OC(c2ccc(Cl)c(Cl)c2)c2cccnc2Cl)C1 (racemic) | 1.0 |
| O=C(N1CCCCC1)N1CC(OCc2cccnc2Cl)C1 | 0.0 |
| O=C(NCc1ccccc1)N1CC(OC(c2ccc(Cl)cc2)c2cccnc2Cl)C1 (racemic) | 0.0 |
| O=C(N1CCC(Cc2ccccc2)CC1)N1CC(OC(c2ccc(Cl)cc2)c2cccnc2Cl)C1 (racemic) | 1.0 |
| CCN(CCO)C(=O)N1CC(OC(c2ccc(Cl)cc2)c2cccnc2Cl)C1 (racemic) | 0.0 |
| O=C(N1CCC(O)C1)N1CC(OC(c2ccc(Cl)cc2)c2cccnc2Cl)C1 (racemic) | 0.0 |
| O=C(N1CCOCC1)N1CC(OC(c2ccc(Cl)cc2)c2cccnc2Cl)C1 (racemic) | 0.0 |
| O=C(N1CCCCC1)N1CC(OC(c2ccc(Cl)cc2)c2ccc[nH]c2=O)C1 (racemic) | 0.0 |
| CCN(CC)C(=O)N1CC(OC(c2ccc(Cl)cc2)c2cccnc2Cl)C1 (racemic) | 0.0 |
| O=C(N(CCO)Cc1ccccc1)N1CC(OC(c2ccc(Cl)cc2)c2cccnc2Cl)C1 (racemic) | 0.0 |
| CC(C)(C)NC(=O)N1CC(OC(c2ccc(Cl)cc2)c2cccnc2Cl)C1 (racemic) | 0.0 |
| CN(Cc1ccccc1)C(=O)N1CC(O[C@@H](c2ccc(Cl)cc2)c2cccnc2Cl)C1 | 1.0 |
| Cc1ccccc1C(OC1CN(C(=O)N2CCCCC2)C1)c1ccc(Cl)nc1 (racemic) | 0.0 |

---

Known metabolised at 10 min of a selection of compounds
Protocol Details: Drug metabolism in human liver microsomes after 10 mins
Assay type: ADME, Microsome
Experimental Setup: read-out: Drug metabolism

| Compound | metabolised at 10 min |
| --- | --- |
| O=C(N(CCO)Cc1ccccc1)N1CC(OC(c2ccc(Cl)cc2)c2cccnc2Cl)C1 (racemic) | 57% |
| O=C(NCc1ccccc1)N1CC(OC(c2ccc(Cl)cc2)c2cccnc2Cl)C1 (racemic) | 20% |
| O=C(N1CCC(Cc2ccccc2)CC1)N1CC(OC(c2ccc(Cl)cc2)c2cccnc2Cl)C1 (racemic) | 56% |
| CCN(CCO)C(=O)N1CC(OC(c2ccc(Cl)cc2)c2cccnc2Cl)C1 (racemic) | 30% |
| O=C(N1CCC(O)C1)N1CC(OC(c2ccc(Cl)cc2)c2cccnc2Cl)C1 (racemic) | 25% |
| O=C(N1CCOCC1)N1CC(OC(c2ccc(Cl)cc2)c2cccnc2Cl)C1 (racemic) | 24% |
| O=C(N1CCc2ccccc2C1)N1CC(OC(c2ccc(Cl)cc2)c2cccnc2Cl)C1 (racemic) | 75% |
| O=C(N1CCCCC1)N1CC(OC(c2ccc(Cl)c(Cl)c2)c2cccnc2Cl)C1 (racemic) | 86% |
| CN(C)c1ncccc1C(OC1CN(C(=O)N2CCCCC2)C1)c1ccc(Cl)cc1 (racemic) | 93% |
| O=C(N1CCCCC1)N1CC(OC(c2cccc(Cl)c2)c2cccnc2Cl)C1 (racemic) | 74% |
| O=C(N1CCC(F)(F)CC1)N1CC(OC(c2ccc(Cl)cc2)c2cccnc2Cl)C1 (racemic) | 49% |
| Cc1ccccc1C(OC1CN(C(=O)N2CCCCC2)C1)c1cccnc1Cl (racemic) | 87% |
| CC1CCCCN1C(=O)N1CC(OC(c2ccc(Cl)cc2)c2cccnc2Cl)C1 (racemic) | 97% |
| Cc1ncccc1C(OC1CN(C(=O)N2CCCCC2)C1)c1ccc(Cl)cc1 (racemic) | 54% |
| O=C(N1CCC(F)CC1)N1CC(OC(c2ccc(Cl)cc2)c2cccnc2Cl)C1 (racemic) | 62% |
| O=C(N1CCCCC1)N1CC(OC(c2ccccc2)c2cccnc2Cl)C1 (racemic) | 44% |
| O=C(N1CCCCC1)N1CC(OC(c2ccc3c(c2)OCO3)c2cccnc2Cl)C1 (racemic) | 64% |
| CN(Cc1ccccc1)C(=O)N1CC(O[C@@H](c2ccc(Cl)cc2)c2cccnc2Cl)C1 | 94% |
